Reported mass density is given for each of the following compounds.
conditions: 298.15 K; 101.33 kPa; Liquid
Give the value, in units of kg/m3, as a plain number.

Recorded mass density, per entry:
1. Cc1cc(C)cc(C)c1
861.03
2. Cc1ccc(C)c(C)c1
871.64
3. C[S+](C)[O-] [dimethyl sulfoxide]
1095.54
4. C1CCOC1 [tetrahydrofuran]
882.06

May I ask what mass density has been recorded for ClC(Cl)(Cl)Cl ?
1583.8
